We begin with a simple list: items and their reported melting point.

Examples with answers:
> print(dat)
                                   compound  observed.value
1           NC(=O)c1ccc2c(c1)C(=O)C1(CC1)O2   243 to 244 °C
2  CCCCCCCN(C[C@H]1CCCC[C@H]1CN(CCCCCCC)C(=O)Nc1ccc(N(C)C)cc1)C(=O)Nc1ccc(N(C)C)cc1   135 to 138 °C
3  CCOC(=O)c1c(O)c2cc(C)ccc2n(Cc2ccc(F)cc2)c1=O          130 °C
4                    Cc1coc2cc(Cl)cc(Cl)c12           45 °C
5           O=C(O)c1cnc(S)n1Cc1cc(F)cc(F)c1   240 to 241 °C
6      CCc1cc(OC)c(C=C(C)[N+](=O)[O-])cc1OC     63 to 64 °C

Can you share its melting point? I mean this compound: CC(C)N1Cc2ccccc2N(CCN2CCC(c3c[nH]c4cc(F)ccc34)C2)S1(=O)=O (stereo not given)
50.8 to 54.4 °C

Can you share its melting point? I mean this compound: COc1cc([N+](=O)[O-])ccc1S(=O)(=O)Nc1ccc(C)cc1
126 to 129 °C

Can you share its melting point? I mean this compound: CC(=O)C(=NNc1ccc(C)cc1)Sc1ccc(Cl)cc1
133 to 136 °C

Can you share its melting point? I mean this compound: COc1ccc(-c2csc(Nc3ccccn3)n2)cc1OC
211 to 214 °C

---

We begin with a simple list: items and their reported melting point.

> print(dat)
                                   molecule  observed.value
1  O=C(NOC1CCCCO1)c1ccc(-c2ccc3ncnc(Nc4ccc(OCc5cccc(F)c5)c(Cl)c4)c3c2)s1 (centres undefined)          250 °C
2  CCCCCCOC(=O)CC[C@@H](NC(=O)[C@@H](NC(=O)OC(C)(C)C)C(C)C)C(N)=O     94 to 95 °C
3  COc1c(NS(=O)(=O)c2ccccc2)cccc1C(=O)Nc1ccccc1   190 to 194 °C

Can you share its melting point? I mean this molecule: CCOC(=O)C1(Cc2cccnc2)CCCN(C(=O)c2ccc(Nc3nccc(Nc4ccc(F)cc4)n3)cc2)C1 (centres undefined)
119 °C

Can you share its melting point? I mean this molecule: Cc1ccc2ncc(CSc3ccc(N)cc3)n2c1
128 to 129 °C

Can you share its melting point? I mean this molecule: CCC(=NOCc1cccs1)c1cc(Cl)ccc1NS(=O)(=O)C(F)(F)F
53 to 54 °C

Can you share its melting point? I mean this molecule: CCCCn1nnc(-c2ccc(C(=O)NCC3CCCC3(C)C)cc2)n1 (centres undefined)
121 to 123 °C

Can you share its melting point? I mean this molecule: CCCOc1ccc(S(=O)(=O)N2CCN(CCO)CC2)cc1C(=O)OC
88 to 89 °C

Can you share its melting point? I mean this molecule: Cn1ncnc1COc1nn2c(-c3ccccc3F)nncc2c1-c1cccc(F)c1F
176 °C

---

We begin with a simple list: items and their reported melting point.

Examples with answers:
> print(dat)
                                   compound   observed.value
1                    CCCC1(C)CC(=O)NC(=O)C1    110 to 112 °C
2  C[C@H](CSC(=O)c1ccccc1)C(=O)N1CSC[C@H]1C(=O)OCOC(=O)C(C)(C)C    69 to 69.5 °C
3  CCCn1c(-c2ccc(I)cc2)nc2cc(C#N)c(C#N)cc21    208 to 209 °C
4  COc1ccc2nc(COc3ccc(CC(C)C(N)=S)cc3)n(C)c2c1 (stereo not given)    204 to 206 °C
5  Cc1ccc(C(=O)c2cccc3c2CCCC3C(=O)O)cc1 (stereo not given)    102 to 103 °C
6          N#Cc1cc(N)ccc1N1CCC(N2CCOCC2)CC1      84 to 86 °C
7      CON=C(c1ccccc1OCc1ccc(Cl)cc1)n1ccnc1  92.5 to 93.5 °C
8       O=C(c1c2n(c3ccccc13)CCNCC2)C(F)(F)F    131 to 133 °C
9  CC(=O)OC1CC2=CC(=O)C3C4CCC(C(C)CCCC(C)C)C4(C)CCC3C2(C)C(OC(C)=O)C1 (stereo not given)    121 to 122 °C

Can you share its melting point? I mean this compound: CC#CC(=O)Nc1ccc2ncnc(Nc3cccc(N(C)C)c3)c2c1
252 to 254 °C

Numbers sourced from a melting point compilation (Tetko et al.; mined from patent text by program, amines drawn as free bases though some values may be those of a salt).
